Assign % of Baclofen Released to each entry below.
Stated conditions: human, s9, 1 h, 5 µM
Value expressed in %; do not type the unit.

Q) Could you please provide reported % of Baclofen Released for CCOC(C)(OCC)C(=O)OCOC(=O)NC[C@H](CC(=O)[O-])c1ccc(Cl)cc1.[Na+] [(51)] ? Thanks!
A) 100

Q) Could you please provide reported % of Baclofen Released for CC(=O)OCOC(=O)NC[C@H](CC(=O)[O-])c1ccc(Cl)cc1.[Na+] [(10)] ? Thanks!
A) 96

Q) Could you please provide reported % of Baclofen Released for CC(C)CC(=O)OCOC(=O)NC[C@H](CC(=O)[O-])c1ccc(Cl)cc1.[Na+] [(59)] ? Thanks!
A) 104

Q) Could you please provide reported % of Baclofen Released for CC(OC(=O)NC[C@H](CC(=O)[O-])c1ccc(Cl)cc1)OC(=O)C(C)C.[Na+] (some centres unmarked) [(33)] ? Thanks!
A) 95

Q) Could you please provide reported % of Baclofen Released for CC(=O)OC(OC(=O)NC[C@H](CC(=O)[O-])c1ccc(Cl)cc1)C(C)C.[Na+] (some centres unmarked) [(23)] ? Thanks!
A) 87

Q) Could you please provide reported % of Baclofen Released for CC(C)C(=O)O[C@H](OC(=O)NC[C@H](CC(=O)[O-])c1ccc(Cl)cc1)C(C)C.[Na+] [(100)] ? Thanks!
A) 90

Q) Could you please provide reported % of Baclofen Released for CC(C)C(=O)OC(OC(=O)NC[C@H](CC(=O)[O-])c1ccc(Cl)cc1)C1CCCCC1.[Na+] (some centres unmarked) [(84)] ? Thanks!
A) 76

Q) Could you please provide reported % of Baclofen Released for CC(C)(C)C(=O)OCOC(=O)NC[C@H](CC(=O)[O-])c1ccc(Cl)cc1.[Na+] [(20)] ? Thanks!
A) 100
